Molecular target: T1, human CCR8 (human, UniProt P51685 1-355)
T1 construct: whole, on cells; In the β-arrestin assay CCR8 is fused to the ProLink (PK) tag; also called hCCR8; CHO-K1-human CCR8
T1 sequence (P51685 whole entry, the tested form may be a part): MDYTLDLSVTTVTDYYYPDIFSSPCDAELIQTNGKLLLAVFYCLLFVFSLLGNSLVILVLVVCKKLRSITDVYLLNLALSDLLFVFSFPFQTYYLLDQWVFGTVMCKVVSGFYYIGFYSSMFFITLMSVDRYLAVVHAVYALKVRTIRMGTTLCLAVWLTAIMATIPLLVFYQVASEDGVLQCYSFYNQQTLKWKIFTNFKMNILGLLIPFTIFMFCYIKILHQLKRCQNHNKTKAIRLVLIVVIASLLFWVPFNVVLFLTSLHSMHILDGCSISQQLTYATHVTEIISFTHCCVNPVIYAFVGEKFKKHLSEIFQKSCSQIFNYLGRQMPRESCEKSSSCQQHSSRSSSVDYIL
Test: FACS, hybridoma supernatant on CHO-K1-human CCR8 cells
Task for the reader: assign each of the following binders its reported Binding Ratio (GFP + MFI)/(GFP - MFI).
One number for each entry.

| Binder | Binding Ratio (GFP + MFI)/(GFP - MFI) |
| --- | --- |
| 164G10D6 (antibody, V domains shown, Murine hybridoma antibody; also called 164G10C6) VH: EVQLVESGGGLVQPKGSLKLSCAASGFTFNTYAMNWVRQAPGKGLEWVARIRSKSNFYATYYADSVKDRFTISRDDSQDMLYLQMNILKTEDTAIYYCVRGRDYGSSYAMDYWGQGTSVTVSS VL: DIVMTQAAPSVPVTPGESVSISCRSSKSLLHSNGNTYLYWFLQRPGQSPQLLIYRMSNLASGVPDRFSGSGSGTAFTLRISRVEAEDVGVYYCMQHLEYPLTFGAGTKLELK | 198 |

// for each binder in input: emit Binding Ratio (GFP + MFI)/(GFP - MFI)
1. 348E2D11 (antibody, V domains shown, Murine hybridoma antibody) VH: QVQLVETGGGLVRPGNSLKLSCVTSGFSFSNYRMHWLRQPPGKRLEWIAVITVKSDNYGANYAESVKGRFTISRDDSKSSVYLQMNRLREEDTATYYCSSLGRVAYWGQGTLVTVSA VL: DIVMTQSQKFMFTSVGDRVSVTCKASQNVDTNVVWYQQKPGQSPKALIYSASSRYSGVPDRFTGSGSGTDFTLTISNVQSEDLAEYFCQQHNSFPLTFGAGTKLELI
2. 153D4G2 (antibody, V domains shown, Murine hybridoma antibody; also called 153D3G2; 1531D4G2) VH: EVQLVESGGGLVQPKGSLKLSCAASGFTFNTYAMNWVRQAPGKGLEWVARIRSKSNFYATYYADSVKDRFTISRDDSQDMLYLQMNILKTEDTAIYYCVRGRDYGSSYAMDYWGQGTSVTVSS VL: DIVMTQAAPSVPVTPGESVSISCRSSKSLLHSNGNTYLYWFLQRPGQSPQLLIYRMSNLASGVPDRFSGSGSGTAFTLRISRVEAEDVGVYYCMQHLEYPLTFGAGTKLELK

**A:**
1. 169
2. 215

# batch: return Binding Ratio (GFP + MFI)/(GFP - MFI) for each of the 2 binders below
1. 160D1E3 (antibody, V domains shown, Murine hybridoma antibody) VH: EVQLVESGGGLVQPKGSLKLSCAASGFTFNTYAMNWVRQAPGKGLEWVARIRSKSNYYATYYADSVKDRFTISRDDSQDMLYLQMNNLKTEDTAIYYCVRGRDYGSSYAMDYWGQGTSVTVSS VL: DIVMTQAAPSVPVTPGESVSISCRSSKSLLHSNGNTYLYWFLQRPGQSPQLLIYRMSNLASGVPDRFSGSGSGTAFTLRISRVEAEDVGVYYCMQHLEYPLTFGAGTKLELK
2. 234G9C12 (antibody, V domains shown, Murine hybridoma antibody; also called 234G4C12) VH: DVQLQESGPGLVKPSQSLSLTCSVTGYSITSGYYWNWIRQFPGNKLEWMGYTSYDGSNNYNPSFKNRISITRDISKNQFFLKLNSVTTEDTATYYCARQIGLRRGAMDHWGQGTSVTVSS VL: DIQMTQSSSYLSVSLGGRVTITCKASDHINNWLAWYQQKPGNAPRLLISGSTSLRAGVASRFSGSGSGKDYTLTITSLQTEDVATYYCQQYWGIPFTFGGGTKLEIK

**A:**
[168, 413]
